Assay summary: Amcenestrant PK parameters at steady state in patients
Type: in vivo, human
Run parameters: female, human, plasma, oral, amcenestrant 400 mg with palbociclib, steady state Day 21, N=5; read-out: Ctrough (arithmetic mean)
Attribute measured: concentration at 0 h
For clarity, give the value followed by its unit.

Requested field: concentration at 0 h. Item: `O=C(O)c1ccc2c(c1)CCCC(c1ccc(Cl)cc1Cl)=C2c1ccc(O[C@H]2CCN(CCCF)C2)cc1`
280 ng/mL

---

Assay summary: Published palbociclib exposure data (A5481001, A5481003, A5481008, Ibrance label)
Assay type: in vivo
Run parameters: human, plasma; A5481001, A5481003, A5481008, N=57; read-out: AUC0-24 h, reference: geometric mean of individual studies weighed by number of subjects (converted)
Attribute measured: AUC(0-t) (ng·h/mL)
Just the number please, in ng·h/mL, no unit attached.

// query AUC(0-t) value for entry `CC(=O)c1c(C)c2cnc(Nc3ccc(N4CCNCC4)cn3)nc2n(C2CCCC2)c1=O`
1970
